# testName: qHTS assay to identify small molecule agonists of the endoplasmic reticulum stress response signaling pathway (AID 1159516); also: % is scaled to controls: 0 for no effect and ±100 for the full control effect
# testConditions: ESRE-bla HeLa, ER stress beta-lactamase reporter, 5 h; series mostly up to 61 µM
Results filed as inconclusive are left out. Calls of active or inactive are those of the source. Calls follow the shape of the dose curve; as a rule, active = well fitted activation curve with a large enough effect in the signal ratio in the repeat runs (not every such curve was filed as active); inconclusive = weak or mixed curves, or effect the other way; inactive = flat fitted curve, though single readings scatter; the % refers to the signal ratio.
measureName: outcome

Solved entries (count: 4):
In: What value of measured outcome is listed for `O=C1OC(c2ccc(O)c(S(=O)(=O)O)c2)(c2ccc(O)c(S(=O)(=O)O)c2)c2c(Br)c(Br)c(Br)c(Br)c21` ?
Out: inactive

In: What value of measured outcome is listed for `CNC(=O)N(C)c1nc2ccccc2s1` ?
Out: inactive

In: What value of measured outcome is listed for `CCOP(=O)(OCC)OP(=O)(OCC)OCC` ?
Out: inactive

In: What value of measured outcome is listed for `O=C(Oc1ccc(Br)cc1)N1CCN2CCC1CC2` ?
Out: inactive

Others:
In: What value of measured outcome is listed for `COc1cccc2c1cc([N+](=O)[O-])c1c(C(=O)O)cc3c(c12)OCO3` ?
Out: inactive

In: What value of measured outcome is listed for `Cc1ncc(CNC(=O)N(CCCl)N=O)c(N)n1` ?
Out: inactive

In: What value of measured outcome is listed for CC(Oc1ccc(Oc2ncc(C(F)(F)F)cc2Cl)cc1)C(=O)O (stereo not drawn) ?
Out: inactive

In: What value of measured outcome is listed for `CCCCOC(=O)[C@@H](C)Oc1ccc(Oc2ccc(C#N)cc2F)cc1` ?
Out: inactive

* * *

# targetOrTestSystem: Nuclear receptor subfamily 1 group I member 2 (Homo sapiens) (UniProt O75469)
# Sequence (O75469 whole entry, looked up): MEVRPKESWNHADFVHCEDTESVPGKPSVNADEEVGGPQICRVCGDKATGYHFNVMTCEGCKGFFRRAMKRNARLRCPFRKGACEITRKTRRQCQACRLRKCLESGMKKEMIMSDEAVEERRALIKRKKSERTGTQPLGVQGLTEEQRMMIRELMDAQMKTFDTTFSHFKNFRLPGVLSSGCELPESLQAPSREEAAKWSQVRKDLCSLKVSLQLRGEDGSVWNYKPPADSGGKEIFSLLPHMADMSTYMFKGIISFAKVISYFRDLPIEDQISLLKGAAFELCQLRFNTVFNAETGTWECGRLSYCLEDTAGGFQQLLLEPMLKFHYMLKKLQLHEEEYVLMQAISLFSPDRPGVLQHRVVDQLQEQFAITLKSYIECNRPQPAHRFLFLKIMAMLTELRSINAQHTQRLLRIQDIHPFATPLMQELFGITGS
# testName: Human pregnane X receptor (PXR) small molecule agonists, qHTS assay (AID 1346982); also: nearly all actives have a fitted effect of over 35% in size; as to activation: % is scaled to controls: 0 for no effect and ±100 for the full control effect
# testConditions: PXR-Luc HepG2, CYP3A4 luciferase reporter, 24 h; series mostly up to 92.4 µM
Results filed as inconclusive are left out. Calls of active or inactive are those of the source. The call rests on the fitted dose curve; in most records, active means well fitted activation curve with a large enough effect in the repeat runs; inconclusive means weak or mixed curves; inactive means no such curve, though single readings can be large or run the other way.
I would appreciate it if you answered using one of these outcomes: True = active, False = inactive

Use these answered entries as a reference point.
In: Fill in: this test's call for `CN1C(=S)CN=C(c2ccccc2)c2cc(Cl)ccc21` is ___
Out: True

In: Fill in: this test's call for `O=[N+]([O-])c1cccc2cccnc12` is ___
Out: True

In: Fill in: this test's call for `Nc1c(Br)cc([N+](=O)[O-])cc1[N+](=O)[O-]` is ___
Out: True

In: Fill in: this test's call for `Clc1cccc(N2CCNCC2)c1` is ___
Out: False

Now examine the next entry.
In: Fill in: this test's call for `N#CC(Cl)(Cl)Cl` is ___
Out: False

* * *

# testName: qHTS assay for small molecule activators of the heat shock response signaling pathway (AID 743210);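 also: HeLa cells with beta-lactamase reporter driven by heat shock elements; % is scaled to controls: 0 for no effect and ±100 for the full control effect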
# testConditions: HeLa HSE-bla reporter, beta-lactamase ratio, 5 h; series mostly up to 62.6 µM
Inconclusive results are not listed. Calls of active or inactive are those of the source. Calls come from the whole dose curve; as a rule, active = well fitted activation curve with a large enough effect in the signal ratio in the repeat runs, with a control signal flat (not every such curve was filed as active); inconclusive = weak or mixed curves; inactive = flat fitted curve, though single readings scatter; the % refers to the signal ratio.
measureName: outcome

Solved entries (count: 10):
In: What value of measured outcome is listed for `Nc1cc2c3c(c1)C(c1ccccc1)=N[C@@H](NC(=O)c1cccnc1)C(=O)N3CC2` ?
Out: inactive

In: What value of measured outcome is listed for CCC(C)n1c(=O)[nH]c(C)c(Br)c1=O (stereo not given) ?
Out: inactive

In: What value of measured outcome is listed for `ClC(Cl)C(Cl)Cl` ?
Out: inactive

In: What value of measured outcome is listed for `ClCC(Cl)(Cl)Cl` ?
Out: inactive

In: What value of measured outcome is listed for `OCCSCSCCO` ?
Out: inactive

In: What value of measured outcome is listed for C(CCOCC1CO1)COCC1CO1 (stereo not given) ?
Out: inactive

In: What value of measured outcome is listed for `CCCCc1c(C)nc(NCC)[nH]c1=O` ?
Out: inactive

In: What value of measured outcome is listed for `O=C(O)c1cccc(Cl)c1` ?
Out: inactive

In: What value of measured outcome is listed for `CCOP(=S)(OCC)Oc1ncn(-c2ccccc2)n1` ?
Out: inactive

In: What value of measured outcome is listed for `O=C1OC(c2ccc(O)c(S(=O)(=O)O)c2)(c2ccc(O)c(S(=O)(=O)O)c2)c2c(Br)c(Br)c(Br)c(Br)c21` ?
Out: inactive

Others:
In: What value of measured outcome is listed for `CCCCOP(=O)(O)OCCCC` ?
Out: inactive

In: What value of measured outcome is listed for `N#Cc1c(Cl)cccc1Cl` ?
Out: inactive

In: What value of measured outcome is listed for `CCOP(=S)(OCC)Oc1nc(Cl)n(C(C)C)n1` ?
Out: inactive

In: What value of measured outcome is listed for `COc1ccc(C(=O)N2CCCC2=O)cc1` ?
Out: inactive

In: What value of measured outcome is listed for `CCC#N` ?
Out: inactive

* * *

# testName: qHTS assay to identify small molecule phospholipidosis (PLD) inducers (AID 1259344); also: % is scaled to controls: 0 for no effect and ±100 for the full control effect
# testConditions: HepG2 phospholipidosis, LipidTOX Red imaging, 24 h; series mostly up to 38.3 µM
Inconclusive results are not listed. Calls of active or inactive are those of the source. Calls come from the whole dose curve; as a rule, active = well fitted activation curve with a large enough effect; inconclusive = small, poorly fitted or top-dose-only effect; inactive = flat fitted curve, though single readings scatter.
measureName: PLD induction

In: What value of measured PLD induction is listed for `OC(c1ccccc1)(c1ccccc1)C1CCNCC1` ?
Out: inactive

In: What value of measured PLD induction is listed for CCN(CC)C(C)C(=O)c1ccccc1 (configuration not stated) ?
Out: inactive

In: What value of measured PLD induction is listed for `CNCC(=O)c1ccc(O)c(O)c1` ?
Out: -2.28% [at 7.66 µM] (inactive)

In: What value of measured PLD induction is listed for `CCOP(=S)(OCC)SCSc1ccc(Cl)cc1` ?
Out: -3.38% [at 7.66 µM] (inactive)

In: What value of measured PLD induction is listed for C[C@@H]1CN(C2CCC(C#N)(c3ccc(F)cc3)CC2)CC[C@]1(C(=O)O)c1ccccc1 (some centres not stated) ?
Out: inactive

Others:
In: What value of measured PLD induction is listed for `Cc1nnc2n1-c1sc(CCC(=O)N3CCOCC3)cc1C(c1ccccc1Cl)=NC2` ?
Out: inactive

In: What value of measured PLD induction is listed for CC(C)CC(N(C)C)C1(c2ccc(Cl)cc2)CCC1 (configuration not stated) ?
Out: inactive

* * *

# targetOrTestSystem: Nuclear receptor ROR-gamma (Homo sapiens) (UniProt P51449)
# testName: qHTS assay to identify small molecule antagonists of the retinoid-related orphan receptor gamma (ROR-gamma) signaling pathway (AID 1159521; also: nearly all actives have a fitted effect of over 50% in size)
# testConditions: Tet-on RORgamma CHO cells, RORE-luciferase, 16 h; series mostly up to 92.4 µM
Results filed as inconclusive are left out. Activity calls are given as the source filed them. The call rests on the fitted dose curve; in most records, active means well fitted inhibition curve with a large enough effect in the repeat runs; inconclusive means weak or mixed curves, or effect the other way; inactive means no such curve, though single readings can be large or run the other way.
I would appreciate it if you answered using one of these outcomes: YES = active, NO = inactive

In: Fill in: this test's call for `ClCCCN1CCN(c2cccc(Cl)c2)CC1` is ___
Out: NO

In: Fill in: this test's call for CC(Oc1ccc(Oc2ncc(C(F)(F)F)cc2Cl)cc1)C(=O)O (configuration not stated) is ___
Out: YES

In: Fill in: this test's call for `O=C(O)c1ccc2[nH]cc(CCCCN3CC=C(c4ccccc4)CC3)c2c1` is ___
Out: NO

In: Fill in: this test's call for `COc1cc(OC)nc(Oc2cccc(Oc3nc(OC)cc(OC)n3)c2C(=O)O)n1` is ___
Out: NO

In: Fill in: this test's call for `Cc1nnc2n1-c1sc(CCC(=O)N3CCOCC3)cc1C(c1ccccc1Cl)=NC2` is ___
Out: NO

In: Fill in: this test's call for `COc1cc(C[C@@H](C)N)c(OC)cc1C` is ___
Out: NO

In: Fill in: this test's call for CC(C(=O)c1ccccc1)N(C)C (configuration not stated) is ___
Out: NO

In: Fill in: this test's call for CC(C)CC(N(C)C)C1(c2ccc(Cl)cc2)CCC1 (configuration not stated) is ___
Out: NO

In: Fill in: this test's call for CCC/C(=N\OCC)C1=C(O)CC(CC(C)SCC)CC1=O (configuration not stated) is ___
Out: NO

In: Fill in: this test's call for `COC(=O)COc1ccc(Cl)cc1Cl` is ___
Out: NO

Others:
In: Fill in: this test's call for `ClC(Br)Br` is ___
Out: NO

In: Fill in: this test's call for `O=[N+]([O-])c1cccc2c([N+](=O)[O-])cccc12` is ___
Out: NO

In: Fill in: this test's call for `CCOP(=S)(OCC)Oc1nc(Cl)n(C(C)C)n1` is ___
Out: NO

In: Fill in: this test's call for `ClC(Cl)(Cl)C(Cl)(Cl)Cl` is ___
Out: NO

In: Fill in: this test's call for `CCC(C)(C)c1cc(-n2nc3ccccc3n2)c(O)c(C(C)(C)CC)c1` is ___
Out: NO
